- Assay target: TACE (catalytic domain of the recombinant TACE protein) (Homo sapiens)
- Construct: The catalytic domain of the recombinant TACE protein was expressed and purified; made in house
- Procedure details: TACE FRET assay using TACE Cat
- Type: biochemical
- Settings: FRET, pro-TNF-α substrate peptide; read-out: TACE IC50
- Description: The procedure is essentially as described in Jin, G. et al., Analytical Biochemistry (2002) 302, 269-275, incorporated by reference herein in its entirety. […] K is the IC50. […] Pro-TNF-α substrate peptide Abz-[…]-Dpa (AnaSpec, San Jose, Calif., WARC-1) was prepared as a 2 mM stock solution in the TACE assay buffer (50 mM Tris-HCI, pH 7.4, 25 mM NaCl, 4% Glycerol, 0.005% Brij 35). […] The increase in fluorescence was monitored at an Excitation of 320 nm and an Emission of 420 nm over a period of 10 min. […]
Would you mind telling me the reported pIC50 of each entry?
Keep in mind that pIC50 stands for -log10 of concentration in molar terms.

// pIC50 value for Cc1cc(COc2ccc(S(=O)(=O)N[C@@H]3CCN(S(=O)(=O)C(C)C)C[C@]3(C)C(=O)NO)cc2)c2ccccc2n1 [Example 52] : 8.62

// pIC50 value for Cc1cc(COc2ccc(S(=O)(=O)N[C@@H]3CCOC[C@]3(C)C(=O)NO)cc2)c2ccccc2n1 [Example 44] : 9.30

// pIC50 value for CC[C@]1(C(=O)NO)CCC[C@H]1NS(=O)(=O)c1ccc(OCc2cc(C)nc3ccccc23)cc1 [Example 56] : 8.64

// pIC50 value for CC[C@]1(C(=O)NO)CCC[C@H]1N(C)S(=O)(=O)c1ccc(OCc2cc(C)nc3ccccc23)cc1 [Example 57] : 8.02

// pIC50 value for Cc1cc(COc2ccc(S(=O)(=O)N(C)[C@H]3COC[C@H]3C(=O)NO)cc2)c2ccccc2n1 (stereo in doubt) [Example 27] : 8.85

// pIC50 value for C#CCN1CC[C@@H](NS(=O)(=O)c2ccc(OCc3cc(C)nc4ccccc34)cc2)[C@@](C)(C(=O)NO)C1 [Example 49] : 7.72

// pIC50 value for Cc1cc(COc2ccc(S(=O)(=O)N[C@@H]3CN(C=O)CCC3C(=O)NO)cc2)c2ccccc2n1 (mixture of isomers) [Example 34] : 9.00

====

- Assay target: TACE (catalytic domain of the recombinant TACE protein) (Homo sapiens, UniProt P78536)
- Construct: The catalytic domain of the recombinant TACE protein was expressed and purified; made in house
- Sequence (P78536 223-474 limits assumed): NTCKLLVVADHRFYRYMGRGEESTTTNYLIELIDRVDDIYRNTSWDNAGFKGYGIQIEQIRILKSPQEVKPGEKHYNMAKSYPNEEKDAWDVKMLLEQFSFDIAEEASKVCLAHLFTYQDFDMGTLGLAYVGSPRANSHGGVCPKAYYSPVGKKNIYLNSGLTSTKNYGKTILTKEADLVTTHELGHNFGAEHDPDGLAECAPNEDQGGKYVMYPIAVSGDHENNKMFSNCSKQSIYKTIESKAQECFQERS
- Procedure details: TACE FRET assay using TACE Cat
- Format: biochemical
- Settings: FRET, pro-TNF-α substrate peptide; read-out: TACE IC50
Would you mind telling me the reported log10(IC50) of each entry?
Use the decimal logarithm of IC50 (nM).

// log10(IC50) value for CC(=O)N1CCC(NS(=O)(=O)c2ccc(OCc3cc(C)nc4ccccc34)cc2)C(C(=O)NO)C1 (mixture of isomers) : -0.05

// log10(IC50) value for CN(C1C2CCC(C2)C1C(=O)NO)S(=O)(=O)c1ccc(OCc2ccc3ccccc3c2)cc1 (stereo in doubt) : 2.24

// log10(IC50) value for Cc1cc(COc2ccc(S(=O)(=O)N[C@@H]3CN(S(C)(=O)=O)C[C@@H]3C(=O)NO)cc2)c2ccccc2n1 (relative stereo) : -0.22

// log10(IC50) value for Cc1cc(COc2ccc(S(=O)(=O)N[C@@H]3[C@@H]4CC[C@@H](C4)[C@@H]3C(=O)NO)cc2)c2ccccc2n1 (relative stereo) : 0.00

// log10(IC50) value for Cc1cc(COc2ccc(S(=O)(=O)N[C@@H]3CN(C(=O)NC(C)(C)C)CC[C@@H]3C(=O)NO)cc2)c2ccccc2n1 : 0.15

====

- Assay target: recombinant human MMP-7 (Homo sapiens, UniProt P09237)
- Construct: Active, recombinant human MMP-7 was purchased from Calbiochem (catalog #444270
- Sequence (P09237 95-267): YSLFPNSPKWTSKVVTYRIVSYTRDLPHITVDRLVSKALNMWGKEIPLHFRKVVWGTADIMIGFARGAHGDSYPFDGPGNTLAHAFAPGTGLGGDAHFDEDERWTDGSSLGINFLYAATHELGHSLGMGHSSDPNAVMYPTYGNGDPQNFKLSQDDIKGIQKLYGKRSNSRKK
- Procedure details: In-vitro fluorescence assay of MMP-7 activity
pIC50: −log10 of the molar value.
Classify by measured pIC50: fulfilled if it is equal to or exceeds 6, not fulfilled if it is smaller.

Dear colleague, could you confirm whether Cc1cc(COc2ccc(S(=O)(=O)N[C@@H]3CN(C(=O)NC(C)(C)C)CC[C@@H]3C(=O)NO)cc2)c2ccccc2n1 [Example 35] has pIC50 at or above 6?
not fulfilled

Dear colleague, could you confirm whether Cc1cc(COc2ccc(S(=O)(=O)N[C@@H]3CCC[C@@H]3C(=O)NO)cc2)c2ccccc2n1 [Example 13] has pIC50 at or above 6?
fulfilled

====

- Assay target: recombinant human MMP-2 (Homo sapiens, UniProt P08253)
- Sequence (P08253 110-660): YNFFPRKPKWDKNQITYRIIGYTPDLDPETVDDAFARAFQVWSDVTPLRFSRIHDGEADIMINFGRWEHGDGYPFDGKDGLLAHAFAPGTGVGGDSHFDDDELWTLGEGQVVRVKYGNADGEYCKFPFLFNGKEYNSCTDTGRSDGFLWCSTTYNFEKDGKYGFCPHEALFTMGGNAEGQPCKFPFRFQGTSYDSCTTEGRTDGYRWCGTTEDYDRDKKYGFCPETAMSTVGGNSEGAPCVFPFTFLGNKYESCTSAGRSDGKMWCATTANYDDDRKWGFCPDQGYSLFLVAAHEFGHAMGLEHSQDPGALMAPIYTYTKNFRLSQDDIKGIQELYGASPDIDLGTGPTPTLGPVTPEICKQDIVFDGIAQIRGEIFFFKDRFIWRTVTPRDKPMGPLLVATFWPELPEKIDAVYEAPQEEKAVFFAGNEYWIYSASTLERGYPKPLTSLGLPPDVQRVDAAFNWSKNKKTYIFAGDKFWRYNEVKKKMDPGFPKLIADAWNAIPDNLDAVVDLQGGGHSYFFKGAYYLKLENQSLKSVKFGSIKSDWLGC
- Procedure details: In-vitro fluorescence assay of MMP-2 activity
pIC50: −log10 of the molar value.
Would you mind telling me the reported pIC50 of each entry?

// pIC50 value for Cc1cc(COc2ccc(S(=O)(=O)N[C@@H]3CCOCC3C(=O)NO)cc2)c2ccccc2n1 (stereo in doubt) : < 4.78

// pIC50 value for CC(=O)N1C[C@H](C(=O)NO)[C@H](NS(=O)(=O)c2ccc(OCc3cc(C)nc4ccccc34)cc2)C1 (relative stereo) : < 5.00

// pIC50 value for Cc1cc(COc2ccc(S(=O)(=O)N[C@@H]3CCC[C@@H]3C(=O)NO)cc2)c2ccccc2n1 [Example 13] : < 5.00

// pIC50 value for Cc1cc(COc2ccc(S(=O)(=O)N[C@@H]3CN(S(C)(=O)=O)C[C@@H]3C(=O)NO)cc2)c2ccccc2n1 (relative stereo) : < 5.00

// pIC50 value for Cc1cc(COc2ccc(S(=O)(=O)N(C)[C@H]3CCCC[C@@H]3C(=O)NO)cc2)c2ccccc2n1 (relative stereo) : < 4.78

// pIC50 value for Cc1cc(COc2ccc(S(=O)(=O)N[C@@H]3CCN(S(=O)(=O)C(C)C)C[C@]3(C)C(=O)NO)cc2)c2ccccc2n1 : < 4.78

// pIC50 value for Cc1cc(COc2ccc(S(=O)(=O)NC3CCN(CCO)CC3C(=O)NO)cc2)c2ccccc2n1 (mixture of isomers) : < 5.00

// pIC50 value for Cc1cc(COc2ccc(S(=O)(=O)N[C@@H]3CCOC[C@]3(C)C(=O)NO)cc2)c2ccccc2n1 : < 4.78

// pIC50 value for Cc1cc(COc2ccc(S(=O)(=O)N[C@@H]3[C@@H]4CC[C@@H](C4)[C@@H]3C(=O)NO)cc2)c2ccccc2n1 (relative stereo) : < 4.78

// pIC50 value for Cc1cc(COc2ccc(S(=O)(=O)N[C@@H]3CCCC[C@@H]3C(=O)NO)cc2)c2ccccc2n1 (relative stereo) : < 4.78

// pIC50 value for CC[C@]1(C(=O)NO)CCC[C@H]1N(C)S(=O)(=O)c1ccc(OCc2cc(C)nc3ccccc23)cc1 : < 5.00

// pIC50 value for Cc1cc(COc2ccc(S(=O)(=O)N[C@@H]3CCN(C=O)C[C@@H]3C(=O)NO)cc2)c2ccccc2n1 : < 4.78

// pIC50 value for CC[C@]1(C(=O)NO)CCC[C@H]1NS(=O)(=O)c1ccc(OCc2cc(C)nc3ccccc23)cc1 : < 5.00

====

- Assay target: TACE (catalytic domain of the recombinant TACE protein) (Homo sapiens)
- Construct: The catalytic domain of the recombinant TACE protein was expressed and purified; made in house
- Procedure details: TACE FRET assay using TACE Cat
- Assay type: biochemical
- Settings: FRET, pro-TNF-α substrate peptide; read-out: TACE IC50
Counter-ions that a name gives are not always drawn.
Metric name: IC50 (nM)
Reply numerically in nM, unit not repeated.

// IC50 value for Cc1cc(COc2ccc(S(=O)(=O)N[C@@H]3CCNC[C@]3(O)C(=O)NO)cc2)c2ccccc2n1 : 109

// IC50 value for Cc1cc(COc2ccc(S(=O)(=O)N[C@@H]3CCOCC3C(=O)NO)cc2)c2ccccc2n1 (stereo in doubt) : 0.8

// IC50 value for Cc1cc(COc2ccc(S(=O)(=O)N[C@@H]3CCN(C=O)C[C@]3(O)C(=O)NO)cc2)c2ccccc2n1 [Example 46, trifluoroacetic acid salt] : 1.4

// IC50 value for Cc1cc(COc2ccc(S(=O)(=O)N[C@@H]3CN(C=O)C[C@@H]3C(=O)NO)cc2)c2ccccc2n1 (relative stereo) : 1.1

// IC50 value for Cc1cc(COc2ccc(S(=O)(=O)N(C)[C@@H]3[C@@H]4CC[C@@H](C4)[C@@H]3C(=O)NO)cc2)c2ccccc2n1 (relative stereo) : 1.1

// IC50 value for Cc1cc(COc2ccc(S(=O)(=O)N[C@@H]3CC=CC[C@@H]3C(=O)NO)cc2)c2ccccc2n1 (relative stereo) : 1.1
